targetOfAssay: catalytic domain of human Bub1 (amino acids 704-1085) (Homo sapiens (Human))
Sequence (O43683 704-1085 limits assumed): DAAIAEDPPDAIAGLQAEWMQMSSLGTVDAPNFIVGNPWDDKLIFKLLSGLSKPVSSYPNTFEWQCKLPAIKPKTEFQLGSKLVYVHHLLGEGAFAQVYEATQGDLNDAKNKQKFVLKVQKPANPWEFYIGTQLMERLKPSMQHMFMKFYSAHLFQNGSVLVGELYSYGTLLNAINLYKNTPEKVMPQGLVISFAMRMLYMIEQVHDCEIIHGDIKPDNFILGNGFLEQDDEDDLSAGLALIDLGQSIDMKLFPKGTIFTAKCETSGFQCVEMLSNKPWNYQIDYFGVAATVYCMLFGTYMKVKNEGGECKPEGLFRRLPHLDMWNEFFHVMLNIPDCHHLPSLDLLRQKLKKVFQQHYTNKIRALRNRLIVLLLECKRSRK
testProtocol: Bub1 kinase assay (TR-FRET)
Format: biochemical
conditionContext: read-out: Biological Assay 1: Bub1 kinase assay median IC50
Attribute: pIC50
Please keep in mind that pIC50 is minus log10 of the molar concentration; only the number is needed.

smiles | targetOfAssay | pIC50
CCOc1cc(F)c(Cn2nc(-c3nccc(Nc4ccncc4)n3)c(Cl)c2C2CC2)c(F)c1 | catalytic domain of human Bub1 (amino acids 704-1085) (Homo sapiens (Human)) | 8.25

**Q:** Quick one: pIC50 of CCOc1cc(F)c(Cn2nc(-c3nccc(Nc4ccncc4C(=O)NCCO)n3)c(Cl)c2C2CC2)c(F)c1 ?
**A:** 7.27

**Q:** Value lookup for pIC50; key = CCOc1cc(F)c(Cn2nc(-c3nccc(Nc4ccncc4C(=O)O)n3)c(Cl)c2C2CC2)c(F)c1
**A:** 7.96
